Reported relative viability is given for each of the following molecules.
Tested on: NCI-H1915
Test Protocol: relative viability (nuclei count vs DMSO), 5 days (fraction); higher = more cells survive
Run Parameters: first compound 0.08 µM
Readout Name: relative viability

{"columns": ["Molecule", "Value Observed"],
 "data": [
  ["COc1nc(C)cnc1NS(=O)(=O)c1cccnc1-c1ccc(-c2nnco2)cc1 [Zibotentan] + Cc1cc(Nc2cc(N3CCN(C)CC3)nc(Sc3ccc(NC(=O)C4CC4)cc3)n2)n[nH]1 [Tozasertib] (partner 0.1 µM)", 0.453],
  ["COc1nc(C)cnc1NS(=O)(=O)c1cccnc1-c1ccc(-c2nnco2)cc1 [Zibotentan] + C[C@]1(O)C[C@@H](c2nc(-c3ccc4ccc(-c5ccccc5)nc4c3)c3c(N)nccn32)C1 [Linsitinib] (partner 1 µM)", 0.917],
  ["COc1nc(C)cnc1NS(=O)(=O)c1cccnc1-c1ccc(-c2nnco2)cc1 [Zibotentan] + NC(=O)Nc1cc(-c2cccc(F)c2)sc1C(=O)N[C@H]1CCCNC1 [AZD7762] (partner 0.2 µM)", 0.836]
]}
